system: BaF3 cells expressing the target EGFR mutations (Homo sapiens, UniProt P00533, T790M, cells depend on it, form not given)
Construct: IC50, BAF3 EGFR DEL T790M PURO POOL; other: BAF3 EGFR DEL T790M PURO POOL cells, MTT; other: BAF3 EGFR DEL T790M PURO POOL cells; MTT
Sequence (P00533 with tags, fused parts or gaps DEL746-750/T790M, form open): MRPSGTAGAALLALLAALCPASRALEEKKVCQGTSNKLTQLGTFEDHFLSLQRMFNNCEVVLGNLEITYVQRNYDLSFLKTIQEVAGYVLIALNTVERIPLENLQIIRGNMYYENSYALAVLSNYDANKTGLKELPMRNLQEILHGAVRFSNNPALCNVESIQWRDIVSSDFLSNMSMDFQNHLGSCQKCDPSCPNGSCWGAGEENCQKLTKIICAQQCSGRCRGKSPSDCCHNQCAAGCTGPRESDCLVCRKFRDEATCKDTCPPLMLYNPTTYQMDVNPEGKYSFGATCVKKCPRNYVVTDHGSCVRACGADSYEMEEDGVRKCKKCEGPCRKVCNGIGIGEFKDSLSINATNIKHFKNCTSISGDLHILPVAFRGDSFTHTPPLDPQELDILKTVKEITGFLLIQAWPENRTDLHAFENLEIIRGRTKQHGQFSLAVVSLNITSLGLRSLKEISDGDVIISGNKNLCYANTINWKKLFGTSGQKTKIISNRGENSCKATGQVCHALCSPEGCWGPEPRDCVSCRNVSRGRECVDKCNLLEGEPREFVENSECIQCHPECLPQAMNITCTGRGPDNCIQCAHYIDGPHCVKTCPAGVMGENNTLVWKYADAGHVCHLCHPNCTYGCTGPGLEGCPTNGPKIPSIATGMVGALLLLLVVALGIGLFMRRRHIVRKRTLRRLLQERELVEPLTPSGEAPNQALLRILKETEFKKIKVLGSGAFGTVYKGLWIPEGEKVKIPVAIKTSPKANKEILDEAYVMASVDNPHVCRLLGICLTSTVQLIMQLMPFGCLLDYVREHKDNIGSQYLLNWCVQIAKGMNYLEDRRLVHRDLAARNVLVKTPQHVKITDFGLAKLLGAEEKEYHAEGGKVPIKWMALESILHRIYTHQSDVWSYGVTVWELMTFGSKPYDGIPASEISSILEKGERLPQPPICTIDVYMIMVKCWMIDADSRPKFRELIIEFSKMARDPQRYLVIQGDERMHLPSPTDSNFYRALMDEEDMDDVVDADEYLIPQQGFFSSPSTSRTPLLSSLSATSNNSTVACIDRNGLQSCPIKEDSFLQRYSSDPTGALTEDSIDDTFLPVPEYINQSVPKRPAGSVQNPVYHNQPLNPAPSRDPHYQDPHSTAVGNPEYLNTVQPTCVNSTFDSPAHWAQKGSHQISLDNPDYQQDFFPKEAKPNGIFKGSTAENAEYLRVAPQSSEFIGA
protocol.details: Antiproliferative activity (MTT) against BaF3 cells expressing the target EGFR mutations
Assay type: cell-based
condition.context: BAF3 EGFR DEL T790M PURO POOL cells, read-out: IC50, BAF3 EGFR DEL T790M PURO POOL
Overview of recorded GI50 for various compounds

Check out these entries, answers already filled in.
Measured GI50 of C=CC(=O)Nc1cc(Nc2ncc(Cl)c(Nc3ccccc3P(C)(C)=O)n2)c(OC)cc1OC1CCCN(C)C1 (stereo not shown) : < 50 nM

Measured GI50 of "CNC(=O)/C=C/C(=O)Nc1ccc(OC)c(Nc2ncc(Cl)c(Nc3ccccc3P(C)(C)=O)n2)c1" : 50 to 100 nM

Others:
Measured GI50 of "C=C(C(=O)Nc1ccc(OC)c(Nc2ncc(Cl)c(Nc3ccccc3P(C)(C)=O)n2)c1)C(F)(F)F" : ≥ 250 nM

Measured GI50 of "C=CC(=O)Nc1cc(Nc2ncc(Cl)c(Nc3ccccc3P(C)(C)=O)n2)c(OC)cc1OCCN1CCCCC1" : < 50 nM

Measured GI50 of "C=C(CN1CCCCC1)C(=O)Nc1ccc(OC)c(Nc2ncc(Cl)c(Nc3ccccc3P(C)(C)=O)n2)c1" : < 50 nM

Measured GI50 of "COc1cc(F)c(NC(=O)/C=C/Cl)cc1Nc1ncc(Cl)c(Nc2ccccc2P(C)(C)=O)n1" : < 50 nM

Measured GI50 of "C=CC(=O)Nc1cc(Nc2ncc(Cl)c(Nc3ccccc3P(C)(C)=O)n2)c(OC)cc1C#CCN1CCCCC1" : < 50 nM
